Assay target: Metallo-beta-lactamase type 2 (Klebsiella pneumoniae)
Method summary: qHTS to identify inhibitors of the New Delhi Metallo-beta-lactamase (NDM): assay validation screen against the NCATS LOPAC Collection (AID 1794843);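 also: nitrocefin turnover by NDM-1 measured as 485 nm absorbance at plateau; % is scaled to controls: 0 for no effect and ±100 for the full control effect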
Condition summary: NDM-1 enzyme, nitrocefin hydrolysis, absorbance 485 nm; series mostly up to 38.4 µM
Inconclusive results are not listed. Active and inactive are the calls of the source. Calls follow the shape of the dose curve; as a rule, active = well fitted curve in the direction sought with a large enough effect; inconclusive = small, poorly fitted or top-dose-only effect, or another doubt; inactive = no such curve, though single readings can be large or run the other way.
Parameter measured: outcome

Some entries whose results are on file:
Molecule | Assay target | Result
O=C(CCCN1CCC2(CC1)C(=O)NCN2c1ccccc1)c1ccc(F)cc1 | Metallo-beta-lactamase type 2 (Klebsiella pneumoniae) | inactive
CC(C)c1cccc(C(C)C)c1O | Metallo-beta-lactamase type 2 (Klebsiella pneumoniae) | inactive
CCC1(c2ccc(N)cc2)CCC(=O)NC1=O (configuration not stated) | Metallo-beta-lactamase type 2 (Klebsiella pneumoniae) | inactive
CN1C(=O)CCS(=O)(=O)C1c1ccc(Cl)cc1 (configuration not stated) | Metallo-beta-lactamase type 2 (Klebsiella pneumoniae) | inactive
O=P1(N(CCCl)CCCl)NCCCO1 (configuration not stated) | Metallo-beta-lactamase type 2 (Klebsiella pneumoniae) | inactive
Cc1ncsc1CCCl | Metallo-beta-lactamase type 2 (Klebsiella pneumoniae) | inactive

Next, consider the following molecule.
IN: Given the molecule `NCCc1ccc(O)cc1` , write its reported outcome.
OUT: inactive

====

Exercise: for every item that follows, state its recorded activity change, negative = inhibition.
Method summary: Primary qHTS to identify inhibitors of SARS-CoV-2 cell entry (AID 1645846); also: nearly all actives have a fitted effect of over 45% in size
Condition summary: SARS-CoV-2 pseudovirus cell entry assay, luminescence; at 57.1 µM (top of the series) unless noted
Inconclusive results are not listed.
Numbers only, in %.

Previously resolved entries follow.
Compound | Units symbol | activity change, negative = inhibition
Cc1ccc(C(C)C)c(O)c1 | % | -6.21
Cc1noc(NS(=O)(=O)c2ccc(N)cc2)c1C | % | -11.7

Please go through the list and note activity change, negative = inhibition for each compound.
1. O=C(O)/C=C(\CC(=O)O)C(=O)O
2. CO[C@@]1(NC(=O)C2SC(=C(C(N)=O)C(=O)O)S2)C(=O)N2C(C(=O)O)=C(CSc3nnnn3C)CS[C@@H]21 (stereo partly specified)
3. CCCCC(O)/C=C(C)/C=C/C=C/C(=O)N1CCCC1=O (stereo unspecified)
4. CCOC(=O)/C=C(C)/C=C/C=C(C)/C=C/c1c(C)cc(OC)c(C)c1C
5. CC(=O)Oc1cccc(O)c1
6. Clc1ccc(C(c2ccc(Cl)cc2)C(Cl)(Cl)Cl)cc1
7. COc1ccc(C(=O)CC(=O)c2ccc(C(C)(C)C)cc2)cc1

OUT:
1: 0.545; 2: 4.49; 3: -3.29; 4: -11.5; 5: -13.8; 6: 2.18; 7: -3.57

Hi team, please reply with activity change, negative = inhibition for each item in this list.
1. CO/N=C(/C(=O)N[C@@H]1C(=O)N2C(C(=O)OCOC(=O)C(C)(C)C)=C(C)CS[C@H]12)c1csc(N)n1
2. Cc1c(F)c(N2CCNC(C)C2)cc2c1c(=O)c(C(=O)O)cn2C1CC1 (stereo unspecified)

OUT:
1. -24.9
2. -25.6

====

Method summary: Cell Viability - LYMP2-022 (AID 987);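 also: cells exposed to compound for 24 hr; nearly all actives have a fitted effect of over 55% in size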
Condition summary: LYMP2-022 lymphoblastoid cell viability; series mostly up to 92.2 µM
Records with an inconclusive call do not appear. The source made the active and inactive calls. Calls follow the shape of the dose curve; as a rule, active = well fitted cell-killing curve with a large enough effect; inconclusive = small, poorly fitted or top-dose-only effect; inactive = flat fitted curve, though single readings scatter.
Assign a class; possible classes are 1.0 (active), 0.0 (inactive)

Solved cases below.
Molecule | Answer label
CCCC(C)(COC(N)=O)COC(N)=O | 0.0
C[C@]12CCC(=O)C=C1CC[C@@H]1[C@@H]2CC[C@]2(C)C(=O)CC[C@@H]12 | 0.0
CC(C)NC(C)C | 0.0
O=C(O)CCCc1ccc(N(CCCl)CCCl)cc1 | 1.0
CCOC(=O)CC(SP(=S)(OC)OC)C(=O)OCC (stereo unspecified) | 0.0

IN: Which result was noted for this molecule in the test: `Nc1ccccc1C(=O)O`
OUT: 0.0

IN: Entry `COP(=S)(OC)Oc1ccc(SC)c(C)c1` : call = ?
OUT: 0.0

IN: For `Nc1ccccc1` , which call appears in the assay record?
OUT: 0.0

IN: Tell me the recorded outcome of this test for O=P1(N(CCCl)CCCl)NCCCO1 (stereo unspecified) .
OUT: 0.0

IN: Outcome logged for `NCCc1ccc(O)cc1` in this assay:
OUT: 0.0

IN: Hi, sorry to bother you, what did the test record for `CC(C)c1cccc(C(C)C)c1O` ?
OUT: 0.0

This collection of values is drawn from PubChem BioAssay (NCATS).
